# SYSTEM NAME: DA Transporter (DAT) Sites in Mouse Brain (Mus musculus, UniProt Q61327)
# Construct: Striatum was used to determine occupancy of DA transporter sites; from tissue; host or cells: C57BL/6 mouse striatum homogenate
# Sequence (Q61327 whole entry): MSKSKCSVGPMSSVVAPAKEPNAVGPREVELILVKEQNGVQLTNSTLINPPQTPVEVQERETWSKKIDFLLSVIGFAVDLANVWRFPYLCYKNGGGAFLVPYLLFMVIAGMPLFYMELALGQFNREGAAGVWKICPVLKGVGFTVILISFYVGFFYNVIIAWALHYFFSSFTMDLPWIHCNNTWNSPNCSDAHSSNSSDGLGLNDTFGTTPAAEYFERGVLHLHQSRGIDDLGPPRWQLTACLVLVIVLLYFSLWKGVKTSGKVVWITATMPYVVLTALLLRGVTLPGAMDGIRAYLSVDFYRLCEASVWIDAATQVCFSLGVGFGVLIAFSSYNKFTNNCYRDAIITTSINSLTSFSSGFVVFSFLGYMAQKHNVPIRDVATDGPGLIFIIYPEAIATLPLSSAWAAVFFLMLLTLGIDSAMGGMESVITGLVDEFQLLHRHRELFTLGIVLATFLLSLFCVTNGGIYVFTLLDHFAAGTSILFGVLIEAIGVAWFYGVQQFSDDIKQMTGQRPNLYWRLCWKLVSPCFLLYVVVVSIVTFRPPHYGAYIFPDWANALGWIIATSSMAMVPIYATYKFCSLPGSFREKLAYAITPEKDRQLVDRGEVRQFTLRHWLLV
# ASSAY TEXT: Ex vivo [3H] WIN 35428 binding after oral dosing
# Design: species or system C57BL/6 mice
# MEASUREMENT CONTEXT: 1 mg/kg, mice sacrificed 60 minutes after treatment, striatum
We begin with a simple list: items and their reported Mean Specific Binding (dpm) ± S.E.M., DAT.
Give just the number in dpm; leave the unit off.

Example entries and their recorded answers appear below.
COMPOUND: CNC(C)C1(c2ccc3ccccc3c2)CCCCC1 (single isomer, unassigned) [58 E1]
SYSTEM NAME: DA Transporter (DAT) Sites in Mouse Brain (Mus musculus, UniProt Q61327)
VALUE UNITS: dpm
MEASURED NUMBER: 15732
//
COMPOUND: CN(C)C[C@]1(c2ccc3ccccc3c2)CC[C@](C)(O)CC1
SYSTEM NAME: DA Transporter (DAT) Sites in Mouse Brain (Mus musculus, UniProt Q61327)
VALUE UNITS: dpm
MEASURED NUMBER: 19787
//
COMPOUND: CC(N(C)C)C1(c2ccc3ccccc3c2)CCCCC1 (single isomer, unassigned) [56 E1]
SYSTEM NAME: DA Transporter (DAT) Sites in Mouse Brain (Mus musculus, UniProt Q61327)
VALUE UNITS: dpm
MEASURED NUMBER: 41561

Mean Specific Binding (dpm) ± S.E.M., DAT of CNC(C)C1(c2ccc(Cl)c(Cl)c2)CCCCC1.Cl (single isomer, unassigned) [48 E1, hydrochloride] , assay on DA Transporter (DAT) Sites in Mouse Brain (Mus musculus, UniProt Q61327), is 20656

====

We begin with a simple list: items and their reported IC50.
# SYSTEM NAME: human dopamine reuptake transporter (Homo sapiens)
# Construct: expressed in transfected cells; host or cells: CHO-K1 or HEK293
# Sequence (Q01959 whole entry): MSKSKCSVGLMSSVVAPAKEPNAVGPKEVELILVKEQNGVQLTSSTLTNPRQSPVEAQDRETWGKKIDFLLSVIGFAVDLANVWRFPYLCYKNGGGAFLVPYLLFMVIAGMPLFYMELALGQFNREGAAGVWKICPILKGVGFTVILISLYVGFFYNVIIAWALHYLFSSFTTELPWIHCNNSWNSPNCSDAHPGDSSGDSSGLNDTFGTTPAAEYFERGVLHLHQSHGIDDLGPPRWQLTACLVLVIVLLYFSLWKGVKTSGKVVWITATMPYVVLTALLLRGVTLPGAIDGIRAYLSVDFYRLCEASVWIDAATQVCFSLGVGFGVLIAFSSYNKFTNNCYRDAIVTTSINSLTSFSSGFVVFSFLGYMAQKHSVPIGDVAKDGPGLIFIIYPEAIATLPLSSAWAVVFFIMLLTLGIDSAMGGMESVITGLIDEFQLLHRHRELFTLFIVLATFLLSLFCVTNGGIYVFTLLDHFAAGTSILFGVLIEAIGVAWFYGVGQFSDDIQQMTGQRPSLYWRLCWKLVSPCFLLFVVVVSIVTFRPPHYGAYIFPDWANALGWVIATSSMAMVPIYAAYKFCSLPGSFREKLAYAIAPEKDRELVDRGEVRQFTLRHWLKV
# ASSAY TEXT: cell-based
# MEASUREMENT CONTEXT: recombinant human dopamine transporter (DAT); read-out: Human IC50 (nM) hDAT

Example entries and their recorded answers appear below.
MOLECULE: NCC1(c2ccc(OC(F)(F)F)cc2)CCC(O)CC1 (stereo not drawn)
ENDPOINT LABEL: IC50
RESULT: > 10000 nM
//
MOLECULE: CNCC1(c2ccc(OC(F)(F)F)cc2)CCCCC1O (single isomer, unassigned) [146 E2]
ENDPOINT LABEL: IC50
RESULT: > 10000 nM

// moving on: another record for IC50
Query COc1ccc(C2(CN(C)C)CCCCC2O)cc1 (single isomer, unassigned) [155 E1] yields IC50 of > 10000 nM

====

# SYSTEM NAME: human dopamine reuptake transporter (Homo sapiens)
# Construct: expressed in transfected cells; host or cells: CHO-K1 or HEK293
# ASSAY TEXT: cell-based
# MEASUREMENT CONTEXT: recombinant human dopamine transporter (DAT); read-out: Human IC50 (nM) hDAT
Structures can show the parent of a compound that is named as a salt.
We begin with a simple list: items and their reported IC50.

Example entries and their recorded answers appear below.
COMPOUND: NCC1(c2ccccc2)CCCCC1 [Compound 31, hydrochloride]
RESULT: > 10000 nM
//
COMPOUND: CN(C)CC1(c2ccc(Cl)c(Cl)c2)CCC(F)CC1 (stereo not shown) [Compound 254]
RESULT: < 1 nM
//
COMPOUND: CNCC1(c2ccc(OC(F)(F)F)cc2)CCC(O)CC1 (stereo not shown) [Compound 249]
RESULT: > 10000 nM

// moving on: another record for IC50
IC50 of NCC1(c2ccc3c(c2)OCO3)CCC(O)CC1 (stereo not shown) [Compound 214] , assay on human dopamine reuptake transporter (Homo sapiens), is > 10000 nM
